# tested-target: T1, RAP1B, mGppNHp-bound (human, UniProt P61224 1-184)
# T1 construct: human RAP1B; Loaded with mGppNHp
# T1 sequence (looked up): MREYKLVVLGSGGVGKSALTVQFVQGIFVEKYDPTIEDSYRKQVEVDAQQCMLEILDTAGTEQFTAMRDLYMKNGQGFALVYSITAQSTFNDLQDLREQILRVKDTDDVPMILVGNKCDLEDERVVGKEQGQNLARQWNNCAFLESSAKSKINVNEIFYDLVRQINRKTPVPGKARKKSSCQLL
# assay-procedure: fluorescence polarisation; increasing concentrations of the RA/RB domain as MBP fusion protein (0.002-300 µM; or MBP alone) titrated to mGppNHp-bound RAS protein (1 µM); 30 mM Tris-HCl pH 7.4, 100 mM NaCl, 5 mM MgCl2, 3 mM DTT; Kd from a quadratic ligand-binding equation
# measurement-setup: both partners purified
reported-property: pKd
// scale note: pKd = -log10(conc_M); give the bare number

// pKd lookup, key: RASSF8 RA domain, MBP fusion protein (domain or fragment, human, UniProt Q8NHQ8 1-82, looked up, RASSF8 RA domain, aa 1-82 of Q8NHQ8) MELKVWVDGVQRIVCGVTEVTTCQEVVIALAQAIGRTGRYTLIEKWRDTERHLAPHENPIISLNKWGQYASDVQLILRRTGP
4.18

Next record, please: RASSF4 RA domain, MBP fusion protein (domain or fragment, human, UniProt Q9H2L5 174-262, looked up, RASSF4 RA domain, aa 174-262 of Q9H2L5) YNHKTSVFTPAYGSVTNVRVNSTMTTLQVLTLLLNKFRVEDGPSEFALYIVHESGERTKLKDCEYPLISRILHGPCEKIARIFLMEADL
4.00

Next record, please: RASSF6 RA domain, MBP fusion protein (domain or fragment, human, UniProt Q6ZTQ3 218-306, looked up, RASSF6 RA domain, aa 218-306 of Q6ZTQ3) YNHETSIFIPAFESETKVRVNSNMRTEEVIKQLLQKFKIENSPQDFALHIIFATGEQRRLKKTDIPLLQRLLQGPSEKNARIFLMDKDA
4.19

Next record, please: RASSF1 RA domain, MBP fusion protein (domain or fragment, human, UniProt Q9NS23 194-288, looked up, RASSF1 RA domain, aa 194-288 of Q9NS23) RGPGRGTSVRRRTSFYLPKDAVKHLHVLSRTRAREVIEALLRKFLVVDDPRKFALFERAERHGQVYLRKLLDDEQPLRLRLLAGPSDKALSFVLK
4.59

Next record, please: RASSF7 RA domain, MBP fusion protein (domain or fragment, human, UniProt Q02833 6-89, looked up, RASSF7 RA domain, aa 6-89 of Q02833) AAMELKVWVDGIQRVVCGVSEQTTCQEVVIALAQAIGQTGRFVLVQRLREKERQLLPQECPVGAQATCGQFASDVQFVLRRTGP
4.14
